Test: Pharmacokinetic study, intravenous bolus injection in rats
Format: in vivo
Settings: Sprague Dawley, plasma, rat, dose 0.2 mg/kg, 4 hour post dose, read-out: Concentration in Rat Plasma after Bolus Injection, Mean
readout-kind: concentration at 4 hour (ng/mL)

1) CC1=C[C@H]2[C@@]3(O)[C@H](C)C[C@]4(OC(=O)[C@@H](N)CC5CCCCC5)[C@H]([C@@H]3C=C(CO)C[C@]2(O)C1=O)C4(C)C | 6

###

Biological target: C1b domain of human PKD1 (PKCμ) (Homo sapiens, UniProt Q15139)
Construct: Genes encoding C1b domains of human PKCα, δ, ε, θ, and PKD1 (PKCμ) were synthesized; made in house; host or cells: E. coli BL21(DE3)
Sequence (Q15139 270-320 limits assumed): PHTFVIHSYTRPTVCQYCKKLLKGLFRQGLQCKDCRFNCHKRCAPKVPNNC
Assay: biochemical
Type: binding
Conditions: read-out: Ki PKD1/PKCμ
pKi: −log10 of the molar value.
readout-kind: pKi

1. CC1=C[C@H]2[C@@]3(O)[C@H](C)C[C@]4(OC(=O)[C@@H](N)C/C=C/c5ccccc5)[C@H]([C@@H]3C=C(CO)C[C@]2(O)C1=O)C4(C)C [Compound K101-C1331] | > 8.30
